Value source: patent US20030068675

Molecular target: T1, ZFP SBS#1228 (synthetic)
T1 chain: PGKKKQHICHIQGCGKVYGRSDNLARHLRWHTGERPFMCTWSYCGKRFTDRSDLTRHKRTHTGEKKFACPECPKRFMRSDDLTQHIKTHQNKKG
Assay: EMSA
Conditions: tags: MBP fusion
measured metric: pKd
# pKd = -log10(concentration in molar units)

Memo: ACGGCCGAG (dsDNA) DNA 1: ACGGCCGAG DNA 2: CTCGGCCGT , reported pKd: 7.92
